B1: TPR t1 (parent)
chain: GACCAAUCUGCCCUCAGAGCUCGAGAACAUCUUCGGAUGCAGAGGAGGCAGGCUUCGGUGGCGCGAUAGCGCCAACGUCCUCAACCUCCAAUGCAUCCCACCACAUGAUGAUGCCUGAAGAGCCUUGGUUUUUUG

Variants of: B1
MEASUREMENT_NOTES: polymerase ribozyme fitness, log enrichment relative to wild type (log ratio); higher = more active; in vitro selection for triplet polymerase activity
Note to self: class = bucket of polymerase ribozyme fitness (log ratio), per low class: < -4; middle class: ≥ -4 and < -3; high class: ≥ -3

Field: class (polymerase ribozyme fitness (log ratio)) — entry: A83G C97U U109A
low class

Field: class (polymerase ribozyme fitness (log ratio)) — entry: A43C C53A C56A C62U
middle class

Field: class (polymerase ribozyme fitness (log ratio)) — entry: G60U C123A
high class

Field: class (polymerase ribozyme fitness (log ratio)) — entry: C70U G110U G120A U129G
low class

Field: class (polymerase ribozyme fitness (log ratio)) — entry: A43C G60C U131G
middle class

Field: class (polymerase ribozyme fitness (log ratio)) — entry: C62U A74C C89A C104A U112C
high class

Field: class (polymerase ribozyme fitness (log ratio)) — entry: G52U C56A A66U C102A
low class

Field: class (polymerase ribozyme fitness (log ratio)) — entry: A6G U14A C72U C88U G93A
high class
